B1: Spectrin alpha chain, erythrocytic 1, residues 979 to 1036; numbered along this chain, P02549 (parent)
chain: EQRVMALYDFQARSPREVTMKKGDVLTLLSSINKDWWKVEAADHQGIVPAVYVRRLAH

variants of: B1; experiment: abundance fitness (aPCA) (normalised: wild type 0, dead -1); higher = more abundant; growth selection in yeast, the domain comes from the species named; details: Homo sapiens
Quick rule for you: abundance fitness at -0.4 or higher means YES, lower means NO.

| Mutation Notation | Label Value |
| --- | --- |
| D24M | NO |
| Q2V | YES |
| D24V | NO |
| P15A | YES |
| T27Q | YES |

INPUT: Decide: abundance fitness of R3E >= -0.4?
OUTPUT: NO

INPUT: Decide: abundance fitness of Q11D >= -0.4?
OUTPUT: NO

INPUT: Decide: abundance fitness of F10A >= -0.4?
OUTPUT: NO

INPUT: Decide: abundance fitness of H44A >= -0.4?
OUTPUT: YES

INPUT: Decide: abundance fitness of P49N >= -0.4?
OUTPUT: NO

INPUT: Decide: abundance fitness of N33Q >= -0.4?
OUTPUT: NO

INPUT: Decide: abundance fitness of A42G >= -0.4?
OUTPUT: YES

INPUT: Decide: abundance fitness of L29R >= -0.4?
OUTPUT: NO

INPUT: Decide: abundance fitness of V18C >= -0.4?
OUTPUT: YES

INPUT: Decide: abundance fitness of S14N >= -0.4?
OUTPUT: YES

INPUT: Decide: abundance fitness of P49G >= -0.4?
OUTPUT: NO

INPUT: Decide: abundance fitness of T27P >= -0.4?
OUTPUT: YES

INPUT: Decide: abundance fitness of Q11W >= -0.4?
OUTPUT: NO

INPUT: Decide: abundance fitness of K38G >= -0.4?
OUTPUT: NO

INPUT: Decide: abundance fitness of F10Y >= -0.4?
OUTPUT: YES

INPUT: Decide: abundance fitness of K21A >= -0.4?
OUTPUT: NO

INPUT: Decide: abundance fitness of P15R >= -0.4?
OUTPUT: NO

INPUT: Decide: abundance fitness of M20Q >= -0.4?
OUTPUT: YES
